# Subject of test: SF9 affinity purified rat farnesyl protein transferase (Rattus norvegicus, UniProt Q02293+Q04631)
# Construct: made in house; host or cells: Sf9 insect cells (baculovirus system inferred from b7)
# Run description: PFT inhibitory activity (radiolabeled farnesyl pyrophosphate, streptavidin bead assay)
# Type: biochemical
# Particulars: HEPES buffer pH 7.4 containing 5 mM potassium phosphate; read-out: IC50 (μM) 5 mM K3 PO4 -2
Would you kindly list IC50 for each of these molecules?
Give just the number in µM; leave the unit off.

## Input Can you look up the measured IC50 of O=C(CN(Cc1ccc(OCc2ccccc2)cc1)C(=O)[C@H](Cc1c[nH]cn1)NC(=O)OCc1ccccc1)NCCc1ccccc1F for me?
## Output 0.36

## Input For Cc1ccccc1CN(CC(=O)NCC(C)c1ccccc1)C(=O)[C@H](Cc1c[nH]cn1)NC(=O)OCc1ccccc1 (stereo partly drawn) , what is its reported IC50?
## Output 0.038

## Input Which value of IC50 has been reported for CC(C)CN(CC(=O)NCC(C)c1ccccc1)C(=O)[C@H](Cc1c[nH]cn1)NC(=O)OCc1ccccc1 (stereo partly drawn) in the records?
## Output 0.029

## Input // IC50 lookup, key: COc1ccccc1CN(CC(=O)NCC(C)(C)c1ccccc1)C(=O)[C@H](Cc1c[nH]cn1)NC(=O)OCc1ccccc1
## Output 0.0052

## Input What value of IC50 has been reported for the following molecule? O=C(CN(Cc1ccc(OCc2ccccc2)cc1)C(=O)[C@H](Cc1c[nH]cn1)NC(=O)OCc1ccccc1)NCC(c1ccccc1)c1ccccc1Cl (stereo partly drawn)
## Output 0.014

## Input May I ask what IC50 has been recorded for CC(C)(CNC(=O)CN(Cc1ccc(Cl)cc1)C(=O)[C@H](Cc1c[nH]cn1)NC(=O)OCc1ccccc1)c1ccccc1 ?
## Output 0.014

## Input Which IC50 is listed for CC(C)(CNC(=O)CN(Cc1ccccn1)C(=O)[C@H](Cc1c[nH]cn1)NC(=O)OCc1ccccc1)c1ccccc1 ?
## Output 0.034

## Input Bench note: what IC50 did O=C(CN(Cc1ccc(OCc2ccccc2)cc1)C(=O)[C@H](Cc1cnc[nH]1)NC(=O)OCc1ccccc1)NCC(O)c1ccccc1 (stereo partly drawn) show?
## Output 0.066

## Input State the recorded IC50 for this entry: CC(CNC(=O)CN(Cc1ccc(OCc2ccccc2)cc1)C(=O)[C@H](Cc1c[nH]cn1)NC(=O)OCc1ccccc1)c1ccccc1Cl (stereo partly drawn)
## Output 0.007

## Input Request the reported IC50 associated with COc1ccc(CN(CC(=O)NCC(C)c2ccccc2)C(=O)[C@H](Cc2c[nH]cn2)NC(=O)OCc2ccccc2)cc1 (stereo partly drawn)
## Output 0.017

## Input I would be grateful if you could share the reported IC50 for CC(CNC(=O)CN(Cc1cccc2ccccc12)C(=O)[C@H](Cc1c[nH]cn1)NC(=O)OCc1ccccc1)c1ccccc1 (stereo partly drawn) .
## Output 0.026

## Input Consider the molecule CC(C)(CNC(=O)CN(Cc1ccc(F)cc1)C(=O)[C@H](Cc1c[nH]cn1)NC(=O)OCc1ccccc1)c1ccccc1 and give its measured IC50.
## Output 0.016

## Input Which IC50 value belongs to O=C(CN(Cc1ccc(OCc2ccccc2)cc1)C(=O)[C@H](Cc1c[nH]cn1)NC(=O)OCc1ccccc1)NCC(c1ccccc1)c1ccccn1 (stereo partly drawn) ?
## Output 0.062

## Input Bench note: what IC50 did O=C(CN(Cc1ccc(OCc2ccccc2)cc1)C(=O)[C@H](Cc1c[nH]cn1)NC(=O)OCc1ccccc1)NCCc1ccccc1Cl show?
## Output 0.12

## Input For CC(CNC(=O)CN(Cc1ccc(-c2ccccc2)cc1)C(=O)[C@H](Cc1c[nH]cn1)NC(=O)OCc1ccccc1)c1ccccc1 (stereo partly drawn) , what is its reported IC50?
## Output 0.004

## Input # input molecule: CC(CNC(=O)CN(Cc1ccc(OCc2ccccc2)cc1)C(=O)[C@H](Cc1c[nH]cn1)NC(=O)NCc1ccccc1)c1ccccc1 (stereo partly drawn) [Example 26] ; wanted: its IC50
## Output 0.009

## Input Quick one: IC50 of CC(CNC(=O)CN(Cc1ccc(OCc2ccncc2)cc1)C(=O)[C@H](Cc1c[nH]cn1)NC(=O)OCc1ccccc1)c1ccccc1 (stereo partly drawn) ?
## Output 0.002

## Input Could you share which IC50 value was measured for CC(C)(CNC(=O)CN(Cc1ccccc1)C(=O)[C@H](Cc1c[nH]cn1)NC(=O)OCc1ccccc1)c1ccccc1 ?
## Output 0.005

## Input What IC50 value was documented for this molecule, CC(C)(CNC(=O)CN(Cc1cccnc1)C(=O)[C@H](Cc1c[nH]cn1)NC(=O)OCc1ccccc1)c1ccccc1 ?
## Output 0.1

## Input Entry under review: COc1cccc(CN(CC(=O)NCC(C)(C)c2ccccc2)C(=O)[C@H](Cc2c[nH]cn2)NC(=O)OCc2ccccc2)c1 . Reported IC50?
## Output 0.004

## Input Which IC50 is reported for this molecule? COc1cccc(CN(CC(=O)NCC(C)c2ccccc2)C(=O)[C@H](Cc2c[nH]cn2)NC(=O)OCc2ccccc2)c1 (stereo partly drawn)
## Output 0.009

## Input Find the recorded IC50 belonging to CC(CNC(=O)CN(Cc1ccc(Cl)cc1)C(=O)[C@H](Cc1c[nH]cn1)NC(=O)OCc1ccccc1)c1ccccc1 (stereo partly drawn) and report it.
## Output 0.022

## Input Fill in: IC50 of CN(Cc1ccccc1)C(=O)N[C@@H](Cc1c[nH]cn1)C(=O)N(CC(=O)NCC(C)(C)c1ccccc1)Cc1ccc(Cl)cc1 is ___
## Output 0.005

## Input Look at this molecule and give its reported IC50. COc1ccc(CN(CC(=O)NCC(C)(C)c2ccccc2)C(=O)[C@H](Cc2c[nH]cn2)NC(=O)OCc2ccccc2)cc1
## Output 0.002
